Target: T1, EVA-4 (UniProt P0C8E9 24-127, biotin on the Avi-tag (Bir-A ligase))
T1 sequence (looked up): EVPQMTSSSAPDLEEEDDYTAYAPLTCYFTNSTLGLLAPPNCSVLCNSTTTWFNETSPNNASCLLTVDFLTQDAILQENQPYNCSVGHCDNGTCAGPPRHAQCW
Test: SPR
pKd: −log10 of the molar value.
Please use true whenever pKd is not below 8, and false whenever it is.

binder	class name
CCL15 (ligand, human, UniProt Q16663 22-113, looked up) QFTNDAETELMMSKLPLENPVVLNSFHFAADCCTSYISQSIPCSLMKSYFETSSECSKPGVIFLTKKGRQVCAKPSGPGVQDCMKKLKPYSI	false
CCL3 (ligand, human, UniProt P10147 24-92, looked up) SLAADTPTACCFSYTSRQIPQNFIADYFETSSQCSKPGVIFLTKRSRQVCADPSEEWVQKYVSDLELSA	true
CCL16 (ligand, human, UniProt O15467 24-120, looked up) QPKVPEWVNTPSTCCLKYYEKVLPRRLVVGYRKALNCHLPAIIFVTKRNREVCTNPNDDWVQEYIKDPNLPLLPTRNLSTVKIITAKNGQPQLLNSQ	true
CCL8 (ligand, human, UniProt P80075 24-99, looked up) QPDSVSIPITCCFNVINRKIPIQRLESYTRITNIQCPKEAVIFKTKRGKEVCADPKERWVRDSMKHLDQIFQNLKP	true
CCL24 (ligand, human, UniProt O00175 27-119, looked up) VVIPSPCCMFFVSKRIPENRVVSYQLSSRSTCLKAGVIFTTKKGQQFCGDPKQEWVQRYMKNLDAKQKKASPRARAVAVKGPVQRYPGNQTTC	false
CCL14 (ligand, human, UniProt Q16627 20-93, looked up) TKTESSSRGPYHPSECCFTYTTYKIPRQRIMDYYETNSQCSKPGIVFITKRGHSVCTNPSDKWVQDYIKDMKEN	true
CCL17 (ligand, human, UniProt Q92583 24-94, looked up) ARGTNVGRECCLEYFKGAIPLRKLKTWYQTSEDCSRDAIVFVTVQGRAICSDPNNKRVKNAVKYLQSLERS	false
CCL18 (ligand, human, UniProt P55774 21-89, looked up) AQVGTNKELCCLVYTSWQIPQKFIVDYSETSPQCPKPGVILLTKRGRQICADPNKKWVQKYISDLKLNA	true
CCL1 (ligand, human, UniProt P22362 24-96, looked up) KSMQVPFSRCCFSFAEQEIPLRAILCYRNTSSICSNEGLIFKLKRGKEACALDTVGWVQRHRKMLRHCPSKRK	false
